Data origin, for the record: a melting point compilation (Tetko et al.; mined from patent text by program, amines drawn as free bases though some values may be those of a salt)

// values below are reported melting point
readout-label: melting point

compound=CCOc1ccc(-n2c(NCc3ccc(Cl)cc3)nc3ccc(Cl)cc32)cc1 assay_result="135 to 136 °C"
compound="O=C1N(Cc2ccccn2)c2cccc(-c3ccc(Oc4ccccc4)cc3)c2C12COc1cc3c(cc12)OCCO3 (stereo not given)" assay_result="196 to 199 °C"
compound=CC(C)(C)OC(=O)c1ncn2c1[C@@H]1CCCN1C(=O)c1c-2ccc(N)c1Br assay_result="245 to 246 °C"
compound=CC(C)(C)OC(=O)Nc1cc(-c2nnc(CCc3cccc(C(F)(F)F)c3)o2)ccn1 assay_result="256 to 257 °C"
compound="CCCC(=O)c1ccc(C(CCC)CC(=O)Nc2cc(C(N)=O)ccc2C(C)(C)C)c(OC)c1 (stereo not given)" assay_result="193 to 194 °C"
